B1: NEUROD6 (parent)
chain: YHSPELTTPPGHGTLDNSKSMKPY

- Variants of: B1
- protocolDescription: protein stability index of a GFP-peptide fusion (GPS, HEK-293T) (PSI 1-6); higher = more stable;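 note: lentivirally expressed fusions sorted by FACS into six bins by GFP to DsRed ratio, PSI derived from sequencing read proportions per bin multiplied by bin number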
- conditionsUsed: c terminus: a fixed tail appended
Everything with protein stability index lower than 2 is Not met; everything else, including exactly 2, is Met.

Observe how each entry below is paired with its result.
M21F; Met
K19P; Met
D16P; Met

**Q:** Given the entry K19A , answer whether its protein stability index meets or surpasses 2.
**A:** Met

**Q:** Given the entry P4H , answer whether its protein stability index meets or surpasses 2.
**A:** Met

**Q:** Given the entry M21A , answer whether its protein stability index meets or surpasses 2.
**A:** Met

**Q:** Given the entry P23S , answer whether its protein stability index meets or surpasses 2.
**A:** Not met

**Q:** Given the entry K19W , answer whether its protein stability index meets or surpasses 2.
**A:** Not met

**Q:** Given the entry S3T , answer whether its protein stability index meets or surpasses 2.
**A:** Met

**Q:** Given the entry N17L , answer whether its protein stability index meets or surpasses 2.
**A:** Not met

**Q:** Given the entry L15A , answer whether its protein stability index meets or surpasses 2.
**A:** Met

**Q:** Given the entry K19H , answer whether its protein stability index meets or surpasses 2.
**A:** Met

**Q:** Given the entry L6V , answer whether its protein stability index meets or surpasses 2.
**A:** Met

Hello, the source for this data is the supplement of paper PMC10567573, in case you need it.
